test system: Calu-3; experiment: cell viability relative to DMSO; higher = less toxic; conditions: 72 h; 1 nM
observation-type: cell viability (%)
Record the value in %, omitting the unit from your answer.

Some solved cases for reference:
molecule: CC(C)n1c(=O)n(C(=O)N[C@H]2C[C@H]3CC[C@@H](C2)N3C)c2ccccc21
readout-value: 96.4
--
molecule: CN1CC2c3ccccc3Oc3ccc(Cl)cc3C2C1 (centres undefined)
readout-value: 94.9
--
molecule: O=S1(=O)OC(c2ccc(O)cc2)(c2ccc(O)cc2)c2ccccc21
readout-value: 108
--
molecule: O=C1C=C2C=C[C@@H]3C[C@@]2(O1)[C@H]1CCCCN31
readout-value: 96.5
--
molecule: Nc1nccc(/C=C/c2ccccc2)n1
readout-value: 98.7

For CCOc1ccc(S(=O)(=O)O)c2cccnc12 the molecule record lists cell viability as 99.4

Per the record, CC(C)(C)C(=O)OCC(=O)[C@H]1CC[C@H]2[C@@H]3CCC4=CC(=O)CC[C@]4(C)[C@H]3CC[C@]12C [desoxycorticosterone-pivalate] has cell viability of 98.9

Note to self: cell viability recorded for Nc1ncnc2c1ncn2C1CCCO1 (centres undefined) was 106

Documented cell viability of COCC(=O)O[C@]1(CCN(C)CCCc2nc3ccccc3[nH]2)CCc2cc(F)ccc2[C@@H]1C(C)C : 99.8
